Parameter pKi: see the listing below.
Assay: Inhibition of pig pancreatic elastase
Parameters: species or system Sus scrofa
Formally, pKi is defined as -log10 of the concentration c, with c in mol/L.

[
  {
    "smiles-notation": "CCC1(CC)C(=O)N(c2ccc(C)cc2)C1=O",
    "pKi": 5.13
  },
  {
    "smiles-notation": "CCC1(CC)C(=O)N(c2ccc(Cl)cc2)C1=O",
    "pKi": 5.07
  },
  {
    "smiles-notation": "CC1(C)C(=O)N(Cc2ccccc2)C1=O",
    "pKi": 3.74
  },
  {
    "smiles-notation": "CCC1(CC)C(=O)N(c2ccc(C#N)cc2)C1=O",
    "pKi": 5.22
  },
  {
    "smiles-notation": "CCC1(CC)C(=O)N(c2ccc(OC)cc2)C1=O",
    "pKi": 5.01
  },
  {
    "smiles-notation": "CC1(C)C(=O)N(c2ccc(Cl)cc2)C1=O",
    "pKi": 5.00
  }
]

Moving on to the next compound.
Report pKi for CCC1(CC)C(=O)N(c2ccccc2)C1=O please. 4.99
